Data credit: patent US10758511B2

- assay: physchem
observable: logP

[[record]]
structure_notation = "CCOCCOCCOCCCCCNC(=O)NC12CC3CC(CC(C3)C1)C2"
observed_value = 2.6


====

Record type: pIC50 measurement. Applies to: Rat sEH (Rattus norvegicus, UniProt P80299)
pIC50: −log10 of the molar value.
observable: pIC50

[[record]]
structure_notation = "COc1ccc(CNC(=O)NCc2ccccc2)cc1"
observed_value = 6.74

[[record]]
structure_notation = "O=C(NCc1ccccc1)NCc1ccccc1"
observed_value = 6.41


====

Below, each entry is listed alongside its reported solubility.
- assay: Solubility in sodium phosphate buffer (pH7.4)
- Assay type: physicochemical
- study.conditions: pH 7.4, aqueous buffer, Mean ± SD (n = 3)
observable: solubility (µM)

[[record]]
structure_notation = "COc1cccc(CNC(=O)NCc2cccc(OC)c2)c1"
observed_value = 101

[[record]]
structure_notation = "COc1ccc(CNC(=O)NCc2ccccc2)cc1"
observed_value = 9

[[record]]
structure_notation = "COc1cccc(CNC(=O)NCc2ccccc2)c1"
observed_value = 77

[[record]]
structure_notation = "O=C(NCc1ccccc1)NCc1ccccc1"
observed_value = 43

